- EXPERIMENTAL_TARGET: Alpha-galactosidase A (Homo sapiens)
- TEST_SUMMARY: qHTS Assay for Inhibitors and Activators of Human alpha-Galactosidase From Spleen Homogenate
- CONDITION: 4MU-alpha-Gal fluorescence, 40 min; series mostly up to 80 µM
Among all 240,000 compounds or so, about 20 (0.008%) were called active. Another 1% or so got no clear call; they are omitted. Only a sample is shown.
READOUT_LABEL: activity change, negative = inhibition

>  <MOLECULE>
CCOc1ccc(NC(=O)CN(C)CC(=O)Nc2cccc(Cl)c2C)cc1OCC

>  <RESULT>
inactive

$$$$
>  <MOLECULE>
CCOc1cc(-c2conc2N)cc(OCC)c1OCC

>  <RESULT>
inactive

$$$$
>  <MOLECULE>
CCOc1ccc(NC(=O)COc2ccc(C(=O)NC3CCCc4ccccc43)cc2OC)cc1 (stereo unspecified)

>  <RESULT>
inactive

$$$$
>  <MOLECULE>
Cc1cccc(NC(=S)Nc2ccc3cn[nH]c3c2)c1

>  <RESULT>
inactive

$$$$
>  <MOLECULE>
COc1ccc(-c2c(C)cc3oc(=O)cc(-c4ccccc4)c3c2C)cc1OC

>  <RESULT>
inactive

$$$$
>  <MOLECULE>
CCCN1CCC(=O)N(C(CSc2ccc(C)cc2)Cc2ccccc2)CC1 (stereo unspecified)

>  <RESULT>
inactive

$$$$
>  <MOLECULE>
CCN(CC)c1ccc(/C=N/NC(=O)c2cnccn2)c(O)c1

>  <RESULT>
inactive

$$$$
>  <MOLECULE>
C=C(C)C1CC=C(C)C(O)C1 (stereo unspecified)

>  <RESULT>
inactive

$$$$
>  <MOLECULE>
COc1ccc(C[C@H](C(=O)O)N2C(=O)c3ccc(C(=O)O)cc3C2=O)cc1

>  <RESULT>
inactive

$$$$
>  <MOLECULE>
C=C1CCN(Cc2ccc(OC)cc2)S(=O)(=O)c2ccccc21

>  <RESULT>
inactive

$$$$
>  <MOLECULE>
Cc1cccc(CNc2ccnc(-c3cccnc3)n2)c1

>  <RESULT>
inactive

$$$$

---

- EXPERIMENTAL_TARGET: Alpha-galactosidase A (Homo sapiens)
- TEST_SUMMARY: qHTS Assay for Inhibitors and Activators of Human alpha-Galactosidase From Spleen Homogenate
- CONDITION: 4MU-alpha-Gal fluorescence, 40 min; series mostly up to 80 µM
In all, about 240,000 compounds went through this assay and about 20 (0.008%) were called active. Roughly 1% stayed inconclusive and do not appear here. These entries were drawn from the full list. Peptide text beside a SMILES is read from it.

>  <COMPOUND>
C[C@@H](O)[C@@H]1NC(=O)[C@H](CCCCN)NC(=O)[C@H](Cc2c[nH]c3ccccc23)NC(=O)[C@H](Cc2ccccc2)NC(=O)[C@H](Cc2ccccc2)NC(=O)[C@H](CC(N)=O)NC(=O)[C@H](CCCCN)NC(=O)[C@@H](NC(=O)[C@@H]2CCCN2)CSSC[C@@H](C(=O)N[C@@H](CCCCN)C(=O)O)NC(=O)[C@H](CO)NC(=O)[C@H](CO)NC(=O)[C@H](Cc2ccccc2)NC1=O (HELM PEPTIDE1{P.C.K.N.F.F.W.K.T.F.S.S.C.K}$PEPTIDE1,PEPTIDE1,2:R3-13:R3$$$V2.0)

>  <activity change, negative = inhibition>
inactive

$$$$
>  <COMPOUND>
CC[C@H](C)[C@H](NC(=O)[C@H](CCCNC(=N)N)NC(=O)[C@H](CCCNC(=N)N)NC(=O)[C@H](CC(C)C)NC(=O)[C@H](Cc1ccccc1)NC(=O)CNC(=O)CNC(=O)[C@@H](N)Cc1ccc(O)cc1)C(=O)N[C@@H](CCCNC(=N)N)C(=O)N1CCC[C@H]1C(=O)N[C@@H](CCCCN)C(=O)N[C@@H](CC(C)C)C(=O)N[C@@H](CCCCN)C(=O)N[C@@H](Cc1c[nH]c2ccccc12)C(=O)N[C@@H](CC(=O)O)C(=O)N[C@@H](CC(N)=O)C(=O)N[C@@H](CCC(N)=O)C(=O)O

>  <activity change, negative = inhibition>
inactive

$$$$
